- Experimental target: GTP-binding protein Di-Ras1 (Homo sapiens) (UniProt O95057)
- Sequence (O95057 whole entry, looked up): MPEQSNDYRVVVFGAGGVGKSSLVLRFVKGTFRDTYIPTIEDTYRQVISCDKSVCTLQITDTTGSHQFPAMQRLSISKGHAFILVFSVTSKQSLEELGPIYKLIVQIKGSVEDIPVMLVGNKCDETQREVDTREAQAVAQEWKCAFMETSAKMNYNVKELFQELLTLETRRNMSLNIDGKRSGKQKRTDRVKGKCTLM
- Assay protocol: ligand-induced DIRAS1 melting temperature shift – biophysical, recombinant human GTPase, DSF (AID 386)
- Conditions: recombinant DIRAS1, DSF thermal shift, SYPRO orange; at 10 µM; protein 2 µM; buffer 10 mM HEPES; pH 7.5; NaCl 150 mM; stronger effect = higher value
Tm shift values, listed per item

Reported Tm shift, compound NS(=O)(=O)c1ccc(Nc2nc(OCC3CCCCC3)c3[nH]cnc3n2)cc1 : ____
2.1 Celsius

Any idea what Tm shift was measured for CN[C@@H]1C[C@H]2OC(C)([C@@H]1OC)n1c3ccccc3c3c4c(c5c6ccccc6n2c5c31)C(=O)NC4 ?
2.6 Celsius

Would you mind telling me what Tm shift value was observed for COc1ccc(S(O)(O)N(CCO)c2ccccc2CN(C)C/C=C/c2ccc(Cl)cc2)cc1 ?
4.4 Celsius

What measured Tm shift goes with O=c1c(O)c(-c2ccc(O)c(O)c2)oc2cc(O)cc(O)c12 ?
3.3 Celsius
